Target: KCNQ2/3 channels (Homo sapiens, UniProt O43525+O43526)
Construct: expressed in transfected cells
Sequence (O43526 whole entry): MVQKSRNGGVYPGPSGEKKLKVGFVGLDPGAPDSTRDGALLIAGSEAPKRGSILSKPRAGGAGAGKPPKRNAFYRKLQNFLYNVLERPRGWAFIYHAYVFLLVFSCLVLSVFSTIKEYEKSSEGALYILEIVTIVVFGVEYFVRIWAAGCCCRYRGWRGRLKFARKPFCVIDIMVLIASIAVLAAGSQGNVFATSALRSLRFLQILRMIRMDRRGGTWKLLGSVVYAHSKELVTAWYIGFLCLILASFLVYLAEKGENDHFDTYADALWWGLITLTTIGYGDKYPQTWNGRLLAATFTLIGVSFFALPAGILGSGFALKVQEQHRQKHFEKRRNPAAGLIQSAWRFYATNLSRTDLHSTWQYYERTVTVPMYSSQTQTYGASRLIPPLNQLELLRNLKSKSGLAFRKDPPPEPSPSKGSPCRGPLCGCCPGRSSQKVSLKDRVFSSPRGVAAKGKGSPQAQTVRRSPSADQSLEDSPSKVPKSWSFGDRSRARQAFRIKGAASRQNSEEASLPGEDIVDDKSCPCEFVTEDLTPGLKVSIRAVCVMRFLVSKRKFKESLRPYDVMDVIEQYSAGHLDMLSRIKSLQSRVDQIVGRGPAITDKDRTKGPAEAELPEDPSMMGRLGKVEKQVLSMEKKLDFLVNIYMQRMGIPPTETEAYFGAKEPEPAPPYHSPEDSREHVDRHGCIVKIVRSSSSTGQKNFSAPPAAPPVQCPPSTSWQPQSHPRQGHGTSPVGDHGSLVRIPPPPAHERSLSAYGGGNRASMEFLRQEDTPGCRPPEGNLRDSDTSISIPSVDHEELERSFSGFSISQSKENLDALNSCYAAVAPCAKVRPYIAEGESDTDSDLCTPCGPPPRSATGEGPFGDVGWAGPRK
Sequence (O43525 whole entry): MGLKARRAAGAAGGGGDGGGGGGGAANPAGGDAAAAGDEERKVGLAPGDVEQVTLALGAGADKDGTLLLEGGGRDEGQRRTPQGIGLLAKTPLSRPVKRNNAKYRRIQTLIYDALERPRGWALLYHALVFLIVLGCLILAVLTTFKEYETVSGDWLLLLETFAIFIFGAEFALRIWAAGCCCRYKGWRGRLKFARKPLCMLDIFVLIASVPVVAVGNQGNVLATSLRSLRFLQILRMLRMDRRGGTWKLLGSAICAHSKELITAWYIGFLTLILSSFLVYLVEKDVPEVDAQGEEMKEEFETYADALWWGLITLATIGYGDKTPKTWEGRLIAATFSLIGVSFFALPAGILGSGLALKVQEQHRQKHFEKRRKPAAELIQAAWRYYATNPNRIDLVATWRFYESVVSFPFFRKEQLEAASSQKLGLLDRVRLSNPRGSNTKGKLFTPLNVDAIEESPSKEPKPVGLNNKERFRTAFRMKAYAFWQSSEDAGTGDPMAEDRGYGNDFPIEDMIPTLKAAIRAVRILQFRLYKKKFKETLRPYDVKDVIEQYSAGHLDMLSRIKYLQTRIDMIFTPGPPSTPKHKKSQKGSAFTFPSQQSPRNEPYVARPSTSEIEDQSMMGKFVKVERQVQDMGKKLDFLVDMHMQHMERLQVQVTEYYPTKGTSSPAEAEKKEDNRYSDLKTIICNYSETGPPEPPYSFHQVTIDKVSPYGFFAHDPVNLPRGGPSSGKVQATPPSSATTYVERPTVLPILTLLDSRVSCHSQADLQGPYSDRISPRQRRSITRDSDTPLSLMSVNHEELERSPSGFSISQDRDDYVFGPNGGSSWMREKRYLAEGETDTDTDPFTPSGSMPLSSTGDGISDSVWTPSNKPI
Test: Fluorescence assay using a voltage sensitive dye (fluorimetry)
Assay type: cell-based
Details: CHO-K1, plateau effect relative to saturated retigabine (50 μM) = 100%; CHO-K1 cells expressing KCNQ2/3; negative values = antagonistic; read-out: Fluorimetry % efficacy (retigabine = 100%)
ENDPOINT LABEL: Emax (%)

Before answering, review these 5 worked examples.
>  <SMILES REPRESENTATION>
CCSc1nc(N2CCOCC2)cc(C)c1C(=O)NCCCC(C)(C)CO

>  <Emax (%)>
131

$$$$
>  <SMILES REPRESENTATION>
Cc1cc(N2CCOCC2)nc(N(C)C)c1C(=O)NCc1ccc(C(F)(F)F)cc1

>  <Emax (%)>
160

$$$$
>  <SMILES REPRESENTATION>
Cc1cc(N2CCOCC2)nc(OC2COC2)c1C(=O)NCc1cccc(F)c1

>  <Emax (%)>
116

$$$$
>  <SMILES REPRESENTATION>
CCSc1nc(N(C)C(C)=O)cc(C)c1C(=O)NCc1cccc(F)c1

>  <Emax (%)>
67

$$$$
>  <SMILES REPRESENTATION>
CCSc1nc(N2CCOCC2)cc(C)c1C(=O)NCc1ccc(COC)cc1

>  <Emax (%)>
159

$$$$

1: CCSc1nc(N2CCOCC2)cc(C)c1C(=O)NCCCC1CCCC1
2: CCSc1nc(N2CCOCC2)cc(C)c1C(=O)NCc1ccc(C(F)(F)F)cc1F
# input Hi there, can you help? I need to know whether 1 or 2 has lower measured Emax. Let me know the label of the one you choose.
# output 2
(2: 43%, 1: 207%)

1: CCN(C)c1nc(N2CCOCC2)cc(C)c1C(=O)NCc1ccc(C(F)(F)F)cc1
2: CCOc1nc(N2CCOCC2)cc(C)c1C(=O)NCCCC(F)(F)F
# input Of the two listed items, 1 and 2 , which carries the larger Emax figure? Let me know the label of the one you choose.
# output 2

Attribution: patent US9168259B2
